Test system: P. falciparum Dd2 Cytb G131S
Assay: SYBR Green ABS proliferation assay, NCGC00374598 selected clone C11
Type: cell-based, Plasmodium falciparum
Conditions: Plasmodium falciparum, DD2, cytochrome b mutant line, second value triple, c6; […]; read-out: log AC50, mean (converted)
// assign Yes if AC50 falls strictly below 6 µM, else No (ties count as No)

molecule | target-desc | category
O=c1[nH]c(N2CCOCC2)nc2c1CCN(Cc1cc(F)c(F)cc1F)CC2 [NCGC00440659-01] | P. falciparum Dd2 Cytb G131S | No
CCCN1C(CC(F)(F)F)=N[S+](=O)([O-])c2cc(NC(=O)c3cccs3)ccc21 [NCGC00532340-01] | P. falciparum Dd2 Cytb G131S | No

is_below(AC50, 6 µM) for CC(=O)Nc1ccc(CN2CCc3nc(C(C)C)nc(-c4ccc(Cl)cc4)c3CC2)cc1 [NCGC00374598-01] ?
Yes

Is it true that AC50 reported for CCCN1C(CC(C)C)=N[S+](=O)([O-])c2cc(NC(=O)c3ccc(F)c(Br)c3)ccc21 [NCGC00531767-01] is less than 6 µM?
Yes

Please state whether AC50 is below 6 µM for CCCN1C(CC(C)C)=N[S+](=O)([O-])c2cc(NC(=O)c3ccc(SC)cc3)ccc21 [NCGC00531764-01]
Yes

Please indicate whether the reported AC50 of Oc1ccc(-c2nc(C3CC3)nc3c2CCN(CC2CCCCC2)CC3)cc1 [NCGC00480361-01] is strictly below 6 µM.
No

Confirm or reject: AC50 of CCCN1C(CC(C)C)=N[S+](=O)([O-])c2cc(NC(=O)c3c(Cl)cccc3Cl)ccc21 [NCGC00531779-01] lies strictly below 6 µM
Yes

* * *

AC50 values, listed per item
Tested on: P. falciparum Dd2 Cytb V259L
Assay: SYBR Green ABS proliferation assay, NCGC00473217 selected clone F06
Assay type: cell-based, Plasmodium falciparum
Conditions: Plasmodium falciparum, DD2, NCGC00473217 selected clone F06; read-out: AC50 [μM], Cytb V259L (converted)

Solved entries:
compound | AC50
CCCN1C(CC(C)C)=NS(=O)(=O)c2cc(NC(=O)c3sccc3C)ccc21 [NCGC00521035] | 6.84 µM
CC(C)CC1=NS(=O)(=O)c2cc(NC(=O)c3ccc(F)s3)ccc2N1C [NCGC00651708] | > 29 µM
CCCN1C(CC(C)C)=NS(=O)(=O)c2cc(NC(=O)c3sccc3Cl)ccc21 [NCGC00531529] | 3.72 µM
CCCN1C(CC(C)C)=NS(=O)(=O)c2cc(NC(=O)c3ccc(F)cc3)ccc21 [NCGC00521139] | > 29 µM

Could you please provide reported AC50 for CN1C(c2ccccc2)=NS(=O)(=O)c2cc(NC(=O)c3ccc(F)cc3)ccc21 [NCGC00651719] ? Thanks!
> 29 µM

Given the compound CCCN1C(CC(C)C)=NS(=O)(=O)c2cc(NC(=O)c3ccc(Cl)cc3)ccc21 [NCGC00531775] , write its reported AC50.
> 29 µM

* * *

Tested on: HepG2
Settings: human, hepg2 cells, 48 h
property-name: Log AC50 (M)
Give the value, in units of M, as a plain number.

compound | unit-annotation | assay-value
COc1cccc(Nc2ccc3c(n2)C(C)(C(=O)NC2CCN(C)CC2)CN(C)C3)c1 (stereo not shown) | M | -4.2528

Write Log AC50 (M) of Cc1ccc(C)c(N2CCN(CCCNC(=O)c3cnn(-c4ccc(F)cc4)c3C3CCN(C(=O)OC(C)(C)C)CC3)CC2)c1 ; system used: HepG2
-4.3643

Give the observed Log AC50 (M) of O=C(Nc1ccc(Oc2cccnc2)cc1)C1CCN(Cc2cc(Cl)ccc2O)CC1 for HepG2.
-4.5143

For HepG2, give the measured Log AC50 (M) of the entry CCOC(=O)c1ccc(N2C(=O)c3[nH]nc(-c4ccc(OC)cc4)c3C2c2cccc(O)c2)cc1 (stereo not shown)
-4.3643
